Where do these numbers come from? They come from paper PMC6010333.

test: In vivo PK, dog
PARAMETER: Vd (L/kg)
Use L/kg as the unit, but write only the number.

What does the record list as Vd for CC(C)n1c(=O)n(C)c2cnc3cc(F)c(-c4ccc(OCCCN5CCCCC5)nc4)cc3c21 ? 23.7

###

assay: Plasma protein binding, rat; format: in vitro ADME; conditions: pH 7.4
PARAMETER: fraction unbound at 16 h

What does the record list as fraction unbound at 16 h for CC(C)n1c(=O)n(C)c2cnc3cc(F)c(-c4ccc(OCCCN5CCCCC5)nc4)cc3c21 ? 0.042

###

target: ATM (Homo sapiens, UniProt Q13315); test: purified ATM-dependent phosphorylation of GST-p53 Ser15; type: biochemical; details: ATM IC50 corrected for tight binding, purified enzyme
Sequence (Q13315 whole entry): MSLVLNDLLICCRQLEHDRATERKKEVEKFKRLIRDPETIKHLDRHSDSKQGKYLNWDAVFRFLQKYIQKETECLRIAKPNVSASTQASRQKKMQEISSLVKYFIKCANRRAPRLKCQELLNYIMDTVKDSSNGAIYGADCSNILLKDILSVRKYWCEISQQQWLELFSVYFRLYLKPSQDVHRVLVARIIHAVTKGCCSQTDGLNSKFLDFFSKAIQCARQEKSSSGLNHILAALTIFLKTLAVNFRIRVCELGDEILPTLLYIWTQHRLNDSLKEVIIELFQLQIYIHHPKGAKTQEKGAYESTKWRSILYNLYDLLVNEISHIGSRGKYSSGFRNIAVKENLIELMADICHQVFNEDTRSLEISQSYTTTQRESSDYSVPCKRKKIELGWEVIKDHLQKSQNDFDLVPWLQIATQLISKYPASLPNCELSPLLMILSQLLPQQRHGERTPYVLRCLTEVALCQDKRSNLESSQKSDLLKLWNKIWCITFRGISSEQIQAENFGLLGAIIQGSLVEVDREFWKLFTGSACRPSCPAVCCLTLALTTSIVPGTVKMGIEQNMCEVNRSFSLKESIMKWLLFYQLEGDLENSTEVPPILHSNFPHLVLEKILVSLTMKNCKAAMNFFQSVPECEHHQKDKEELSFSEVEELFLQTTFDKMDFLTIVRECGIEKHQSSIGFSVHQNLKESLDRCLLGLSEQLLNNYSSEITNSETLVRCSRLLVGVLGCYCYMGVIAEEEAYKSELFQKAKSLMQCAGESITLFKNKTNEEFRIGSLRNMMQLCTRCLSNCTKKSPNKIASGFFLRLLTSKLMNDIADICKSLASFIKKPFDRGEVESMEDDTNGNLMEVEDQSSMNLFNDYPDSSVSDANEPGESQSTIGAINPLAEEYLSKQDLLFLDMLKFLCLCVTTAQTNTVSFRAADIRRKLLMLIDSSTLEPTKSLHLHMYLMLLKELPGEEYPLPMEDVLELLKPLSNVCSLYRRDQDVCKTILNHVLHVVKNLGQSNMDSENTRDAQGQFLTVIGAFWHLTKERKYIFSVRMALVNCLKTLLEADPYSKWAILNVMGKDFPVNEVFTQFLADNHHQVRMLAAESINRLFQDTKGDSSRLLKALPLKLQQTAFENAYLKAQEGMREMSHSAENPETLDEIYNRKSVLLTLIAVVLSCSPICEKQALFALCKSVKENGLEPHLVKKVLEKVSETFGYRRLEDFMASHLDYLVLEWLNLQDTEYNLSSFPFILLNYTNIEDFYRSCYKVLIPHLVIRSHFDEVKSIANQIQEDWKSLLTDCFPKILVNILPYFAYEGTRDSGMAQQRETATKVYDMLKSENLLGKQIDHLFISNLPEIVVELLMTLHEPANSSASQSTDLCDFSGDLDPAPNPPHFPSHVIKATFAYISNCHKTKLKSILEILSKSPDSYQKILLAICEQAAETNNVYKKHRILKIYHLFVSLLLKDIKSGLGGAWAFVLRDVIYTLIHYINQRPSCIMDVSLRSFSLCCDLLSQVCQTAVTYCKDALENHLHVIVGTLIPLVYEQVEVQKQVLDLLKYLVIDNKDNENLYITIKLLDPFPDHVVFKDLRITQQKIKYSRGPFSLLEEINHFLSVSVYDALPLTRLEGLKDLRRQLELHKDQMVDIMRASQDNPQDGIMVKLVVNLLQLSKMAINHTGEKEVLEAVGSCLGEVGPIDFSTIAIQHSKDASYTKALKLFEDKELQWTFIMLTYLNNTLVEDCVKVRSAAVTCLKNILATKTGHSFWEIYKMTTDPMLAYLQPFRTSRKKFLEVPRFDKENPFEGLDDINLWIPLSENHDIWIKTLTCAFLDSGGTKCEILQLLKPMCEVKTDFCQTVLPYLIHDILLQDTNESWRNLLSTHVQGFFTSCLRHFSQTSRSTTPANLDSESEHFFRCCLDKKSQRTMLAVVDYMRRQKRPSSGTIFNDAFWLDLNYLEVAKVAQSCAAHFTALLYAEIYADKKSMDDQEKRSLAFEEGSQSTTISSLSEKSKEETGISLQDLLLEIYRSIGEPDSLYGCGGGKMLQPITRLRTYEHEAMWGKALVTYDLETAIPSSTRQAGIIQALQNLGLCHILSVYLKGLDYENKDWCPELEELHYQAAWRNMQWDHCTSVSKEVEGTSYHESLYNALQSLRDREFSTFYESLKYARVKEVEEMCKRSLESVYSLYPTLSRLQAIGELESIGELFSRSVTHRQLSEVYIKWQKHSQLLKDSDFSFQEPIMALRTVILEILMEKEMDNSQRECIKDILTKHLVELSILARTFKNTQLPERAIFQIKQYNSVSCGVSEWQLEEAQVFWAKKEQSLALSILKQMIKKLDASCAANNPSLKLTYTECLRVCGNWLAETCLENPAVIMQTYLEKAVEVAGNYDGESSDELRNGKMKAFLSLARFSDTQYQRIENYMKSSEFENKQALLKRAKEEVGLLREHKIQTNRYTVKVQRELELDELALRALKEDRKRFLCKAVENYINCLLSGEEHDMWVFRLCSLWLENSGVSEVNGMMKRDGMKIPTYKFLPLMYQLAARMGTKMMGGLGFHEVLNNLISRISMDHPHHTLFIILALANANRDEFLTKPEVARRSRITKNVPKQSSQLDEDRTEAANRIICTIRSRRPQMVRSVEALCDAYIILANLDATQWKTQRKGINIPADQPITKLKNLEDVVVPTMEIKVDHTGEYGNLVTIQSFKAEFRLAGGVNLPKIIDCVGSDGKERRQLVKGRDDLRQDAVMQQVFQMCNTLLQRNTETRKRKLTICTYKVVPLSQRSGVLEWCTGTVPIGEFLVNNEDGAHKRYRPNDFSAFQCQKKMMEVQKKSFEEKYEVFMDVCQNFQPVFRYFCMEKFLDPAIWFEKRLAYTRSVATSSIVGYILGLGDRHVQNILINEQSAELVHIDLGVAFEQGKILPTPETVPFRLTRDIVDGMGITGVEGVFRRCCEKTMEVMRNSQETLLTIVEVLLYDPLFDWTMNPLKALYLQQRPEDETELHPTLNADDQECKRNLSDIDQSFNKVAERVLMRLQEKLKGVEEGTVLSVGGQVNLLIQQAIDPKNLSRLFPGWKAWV
PARAMETER: IC50

What does the record list as IC50 for CC(C)n1c(=O)n(C)c2cnc3cc(F)c(-c4ccc(OCCCN5CCCCC5)nc4)cc3c21 ? 0.04 nM

###

target: cardiac ion channel hERG (Homo sapiens, UniProt Q12809); test: hERG alternative assay
Sequence (Q12809 whole entry): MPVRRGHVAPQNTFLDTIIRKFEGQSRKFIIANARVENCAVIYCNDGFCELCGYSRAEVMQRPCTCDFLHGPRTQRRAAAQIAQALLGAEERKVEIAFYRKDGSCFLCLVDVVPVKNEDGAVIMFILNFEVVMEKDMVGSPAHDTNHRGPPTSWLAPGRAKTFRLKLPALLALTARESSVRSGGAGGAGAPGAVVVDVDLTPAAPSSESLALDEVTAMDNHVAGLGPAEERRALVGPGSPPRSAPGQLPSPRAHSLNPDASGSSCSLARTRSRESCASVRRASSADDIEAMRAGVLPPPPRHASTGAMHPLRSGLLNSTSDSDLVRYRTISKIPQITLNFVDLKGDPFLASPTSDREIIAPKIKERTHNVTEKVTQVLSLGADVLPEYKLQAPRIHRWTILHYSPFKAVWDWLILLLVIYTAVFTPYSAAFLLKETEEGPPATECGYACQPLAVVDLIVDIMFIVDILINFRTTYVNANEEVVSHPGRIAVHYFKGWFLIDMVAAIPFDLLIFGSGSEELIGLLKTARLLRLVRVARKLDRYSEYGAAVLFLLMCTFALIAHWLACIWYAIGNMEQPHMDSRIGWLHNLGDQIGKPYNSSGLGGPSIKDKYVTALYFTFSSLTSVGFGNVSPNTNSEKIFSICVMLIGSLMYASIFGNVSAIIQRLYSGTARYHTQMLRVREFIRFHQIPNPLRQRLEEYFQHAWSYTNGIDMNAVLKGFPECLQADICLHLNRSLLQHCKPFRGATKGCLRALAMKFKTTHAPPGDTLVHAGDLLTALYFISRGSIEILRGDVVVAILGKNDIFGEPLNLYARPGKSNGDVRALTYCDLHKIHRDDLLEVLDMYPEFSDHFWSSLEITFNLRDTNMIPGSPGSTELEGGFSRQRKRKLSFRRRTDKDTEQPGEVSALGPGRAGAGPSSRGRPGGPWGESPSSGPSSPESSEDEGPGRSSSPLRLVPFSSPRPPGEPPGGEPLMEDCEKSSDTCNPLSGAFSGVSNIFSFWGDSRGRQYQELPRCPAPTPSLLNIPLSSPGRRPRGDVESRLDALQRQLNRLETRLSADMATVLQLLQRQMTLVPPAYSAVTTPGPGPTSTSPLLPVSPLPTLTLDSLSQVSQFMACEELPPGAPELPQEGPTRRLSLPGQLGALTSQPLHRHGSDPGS
PARAMETER: pIC50
Recall that pIC50 is obtained by taking minus log10 of the concentration measured in molar.

What does the record list as pIC50 for CC(C)n1c(=O)n(C)c2cnc3cc(F)c(-c4ccc(OCCCN5CCCCC5)nc4)cc3c21 ? 5.10

###

biological target: UniProtKB P42345; test: mTOR cell assay
pIC50: −log10 of the molar value.
PARAMETER: pIC50

What does the record list as pIC50 for CC(C)n1c(=O)n(C)c2cnc3cc(F)c(-c4ccc(OCCCN5CCCCC5)nc4)cc3c21 [AZD1390] ? < 4.79

###

assay: In vivo PK, dog
PARAMETER: bioavailability (%)
Use % as the unit, but write only the number.

What does the record list as bioavailability for CC(C)n1c(=O)n(C)c2cnc3cc(F)c(-c4ccc(OCCCN5CCCCC5)nc4)cc3c21 ? 66

###

assay: Hepatocyte CLint, dog; type: in vitro ADME; settings: hepatocytes
PARAMETER: hepatocyte CLint
Output should be the measured figure followed by the unit it is expressed in.

What does the record list as hepatocyte CLint for CC(C)n1c(=O)n(C)c2cnc3cc(F)c(-c4ccc(OCCCN5CCCCC5)nc4)cc3c21 [AZD1390] ? 3.2 µL/min/1e6 cells
